- Tested on: Plasmodium falciparum NF54 stage V gametocytes
- PROCEDURE_DETAILS: viability index relative to DMSO control (fraction); higher = less gametocyte killing
- APPLIED_CONDITIONS: 2.5 µM, library set: Broad Institute DOS, incubation time: 72 h
Over roughly 9,900 compounds, “viability index relative to DMSO control” has its median near 1; the lowest 2% begin near 0.85. This excerpt belongs to a sample that is enriched for the lowest values.
Please assign class 0 whenever viability index is at or above 1, and class 1 whenever it is below.

The following compounds have reported results that may help.
{"columns": ["QUERY_SMILES", "CAT"],
 "data": [
  ["COc1ccc(S(=O)(=O)N(C)C[C@@H]2Oc3c(NC(=O)c4nc5ccccc5s4)cccc3C(=O)N([C@H](C)CO)C[C@@H]2C)cc1", "class 1"],
  ["O=C(Cc1cccnc1)N1CC(=O)N2[C@H](CO)[C@@H](c3ccc(C4=CCCCC4)cc3)[C@H]2C1", "class 1"]
]}

Does CCS(=O)(=O)N(C)C[C@@H]1N[C@H](CO)[C@@H]1c1ccc(-c2ccccc2F)cc1 have viability index strictly under 1?
class 0

Field entry: CN1CCN(C(=O)C[C@@H]2CC[C@H]3[C@H](COc4ccc(NC(=O)C5CCOCC5)cc4C(=O)N3C)O2)CC1
class 0

Field entry: O=C(Nc1cccc(F)c1)N1CCCCN2[C@H](CO)[C@H](c3ccc(C#Cc4cccnc4)cc3)[C@@H]2C1
class 0
